observable: melting point

{"structure": "Fc1ccc(Nc2ncnc3cnc(OC4CCOCC4)nc23)cc1Cl", "meas_value": "220 to 222 °C"}
{"structure": "CC(C)NC(=O)NC/C=C\\COc1cc(CN2CCCCC2)ccn1", "meas_value": "90 to 92 °C"}

In plain terms, Cc1c2ccccc2c(C(=O)O)c2c(C(=O)O)cccc12 has a documented melting point of 275 to 280 °C

###

The entries below come with measured melting point values attached.

Before answering, review these 2 worked examples.
{"compound": "CCN(CC)CCOC1=C(c2ccccc2)CN(Cc2ccc(Cl)cc2)C1=O", "observable": "melting point", "meas_value": "143 to 145 °C"}
{"compound": "CC(=O)Nc1c(C)cccc1CCC(=O)O", "observable": "melting point", "meas_value": "110 °C"}

CCCC(CCOc1c(-c2ccc(S(C)(=O)=O)cc2)cnn(-c2ccc(F)cc2)c1=O)SC (stereo not drawn) yielded melting point of 90 to 92 °C

The compound listed as COc1c(N2C[C@@H](N)[C@@H](C)C2)c(F)cc2c(=O)c(C(=O)O)cn(C3CC3)c12 (relative stereo) shows melting point equal to 192 to 194 °C

Record CN(C)C=C(C=CC#N)c1ccccc1 , field melting point: 77 to 83 °C

Looking up COc1ccc(C(=Cc2cc(OC)c(OC)cc2[N+](=O)[O-])C(=O)N2CCCC2C(=O)O)cc1 (stereo not drawn) , I see its melting point listed as 120 to 122 °C

GET /value?item= CN1CCN(CCCNc2ncc3cc(-c4c(Cl)cccc4Cl)c(NC(=O)Nc4ccc(Br)cc4)nc3n2)CC1 &field=melting point returns 171 to 175 °C

###

# melting point annotations

Worked cases, melting point given:
{"compound": "O=C1c2ccccc2CN1c1ccccc1CCN1CCN(c2nsc3ccccc23)CC1", "melting point": "208 °C"}
{"compound": "Cc1c(O)cccc1C(=O)N[C@@H](Cc1ccccc1)[C@H](O)C(=O)N1CSC(C)(C)[C@H]1C(=O)N[C@@H]1CCc2ccccc21", "melting point": "128 to 130 °C"}
{"compound": "O=C(/C=C/C=C(c1cccc(F)c1)c1cccc(F)c1)Oc1ccc([N+](=O)[O-])cc1", "melting point": "130 °C"}
{"compound": "Cn1ncc(/C=C/C(=O)O)c1-c1ccoc1", "melting point": "218 to 219 °C"}
{"compound": "O=C1OC(=O)C(c2ccccc2)=C1Cl", "melting point": "82 to 83 °C"}

Now look at this entry.
Data point: O=C(OC1CCCCC1)C(c1ccccc1)n1cnc2[nH]ncc2c1=S (centres undefined) ; melting point = 170 to 173 °C

###

observable: melting point

{"compound": "COc1cc2ncnc(N3CCc4ccc(-c5ccccc5)cc43)c2cc1OC", "meas_value": "175 to 177 °C"}

What the record says about COc1cc(OCc2c(C)noc2C)c(C=CC(=O)c2ccc(C(=O)O)cc2)cc1-c1cccs1 : melting point is 213 to 215 °C

Record Cc1c(Cl)sc2c1c(-c1ccccc1F)nc(=O)n2C . Reported melting point: 175 to 176 °C

The compound listed as CN1C(=O)C(CCCCBr)Sc2ccccc21 (configuration not stated) shows melting point equal to 116 °C

melting point reported for this compound CCCc1nc(OC)c(NC(=O)N2CCN(c3cc(C)cc(C)c3)CC2)cc1C : 138 to 139 °C

melting point reported for this compound CCOC(=O)/C=C(/c1ccc(Cl)cc1)c1cccc(OC)c1OC : 82 to 84 °C

Record summary for CCOC(=O)c1cc(CC)sc1Nc1ccc(F)cc1[N+](=O)[O-] : reported melting point = 90 °C

###

Documented melting point across a set of molecules

Value of melting point reported for the molecule Cc1ccc(C(=O)NC(NC(=NC#N)Nc2ccccc2)C(Cl)(Cl)Cl)cc1 (stereo unspecified) is 197 to 199 °C

# molecule CC(C)(C)c1ccc(C(=O)Nc2cn3cc(-n4ccnc4)ccc3n2)cn1 ; its melting point = 242 to 245 °C

Per the records, this molecule ( CS(=O)c1c2ccccc2c(C=O)c2ccccc12 (stereo unspecified) ) has melting point equal to 182 to 184 °C

Sure, the documented melting point for CCOc1c(C(F)(F)F)cc([N+](=O)[O-])c(Nc2ncc(C(F)(F)F)cc2Cl)c1[N+](=O)[O-] is 106 to 108 °C

###

Catalogue of melting point values

{"compound": "CC(=O)c1ccc(SCCCc2ccccc2)cc1", "observable": "melting point", "meas_value": "76 to 78 °C"}

melting point reading for O=c1c(-c2nnn[nH]2)cnc2c(Cl)cccn12 : 313 to 315 °C

The compound listed as CCOc1cc(Cn2cc(CCC(=O)O)c(-c3ccccc3)c2)cc(OCc2nc(-c3ccccc3)oc2C)c1 shows melting point equal to 126 to 127 °C

For record Oc1ccc(P(c2ccc(O)cc2)c2ccc(O)cc2)cc1 the listed melting point is 128 to 133 °C

###

Each entry below lists one item and its recorded melting point value.

{"compound": "ON=C1CCc2c([nH]c3ccccc23)C1", "melting point": "196 °C"}
{"compound": "CCCCCC(CC(=O)O)c1cc(C=O)c(OC)cc1OC (centres undefined)", "melting point": "110 to 112 °C"}

melting point recorded for this compound, Cc1ccc2c(c1)C=Cc1cc(C)ccc1C2c1cn(Cc2nc(C(=O)N[C@@H](CC(=O)O)C(=O)O)cs2)c(=O)[nH]c1=S , is 175 °C

Note to self: melting point recorded for CC(=O)Nc1nc2ccc(S(=O)(=O)n3c(COC(C)C(=O)O)cc4nc(Cl)ccc43)cc2s1 (centres undefined) was 257 to 260 °C

For reference, reported melting point for CNc1nc(-c2ccncc2)n[nH]1 stands at 228 to 230 °C

Input COc1n[nH]c(=O)n1C . Output melting point: 146 °C

Value of melting point reported for the compound COCc1cnc2c(NC(=O)c3c(Cl)cccc3Cl)cccc2c1OCc1cccnc1 is 174 to 176 °C

Measured melting point, CCc1ccc2oc(C(=O)Nc3ccc(-c4ccc(S(=O)(=O)NC(C(=O)O)C(C)C)cc4)cc3)c(C)c2c1OC(C)C (centres undefined) : 159 to 162 °C

Please fill in: melting point reported for Clc1cccc(-c2cnn(-c3ccccn3)c2)c1 = 110 to 111 °C

###

The molecules listed here are annotated with their melting point.

Examples with their reported melting point follow.
{"molecule": "CCCCOc1cccc(CCNC(=O)C=CC2CCCCC2)c1", "melting point": "67 to 71 °C"}
{"molecule": "Oc1cc2cc3c(ccc4cc(O)c(O)cc43)nc2cc1O", "melting point": "> 270 °C"}
{"molecule": "O=C1C=CC2=C(C1CC1CC1)n1ccc3c1=C(CCC=3)c1nncn12 (stereo unspecified)", "melting point": "99 °C"}
{"molecule": "O=C(NC1CC2C=CC1C2)n1cc(F)c(=O)[nH]c1=O (stereo unspecified)", "melting point": "180 °C"}
{"molecule": "Cc1nc(-c2ccc(OCc3cccc(Cl)c3)cc2)no1", "melting point": "96 to 98 °C"}

Lab book: melting point of CON=C(c1ncno1)c1ccccc1COc1ccc(Cl)cc1 noted as 96 to 97.5 °C

// melting point value for CON=C(C)CC(C)(C)Cn1c(C)nc2c(N)nc3ccccc3c21 : 193 to 195 °C

###

observable: melting point

{"compound": "CCOP(=O)(COCCOn1cnc2c(N)nc(N)nc21)OCC", "melting point": "139 to 141 °C"}

Reported melting point for COC(=O)c1ccc(C(O)c2cc3cc(C(F)(F)F)ccc3n2S(=O)(=O)c2cccc(C(C)(C)C)c2)cc1 (racemic) was 60 °C

Lookup result for CC12CCC(=O)C=C1CCC(=Cc1cccs1)C2=O (stereo not given) ; measured melting point: 107 °C

Note to self: melting point recorded for Cc1cc(C2(C(F)(F)F)ON=C(c3ccc(F)cc3)O2)ccc1NC(=O)c1cccc(I)c1C(=O)NC(C)C (stereo not given) was 99 to 112 °C

Value of measured melting point for the entry C#Cc1cc(Nc2ncnc3cnc(NCc4ccc(OC)cc4)cc23)ccc1Cl : 201 to 203 °C

For this compound ( O=C(O)CC1=C(n2nc(-c3c(-c4ccccc4)nn4ccccc34)ccc2=O)CCCCC1 ), measured melting point is 171 to 172 °C

Entry under test: CC(C)n1nc(-c2c(-c3ccccc3)nn3ccc(C(=O)NCCOc4ccccc4)cc23)ccc1=O . Its melting point was 156 to 157 °C

What the record says about N#Cc1ccc(OCCc2coc(-c3ccccc3)n2)cc1 : melting point is 115 °C

Value of melting point reported for the compound CSC(=NC(=O)N(C)C)NC(=O)NC(C)(C)C is 74 to 78 °C

###

observable: melting point

Field: example entries. Status: answers known.
{"compound": "Cc1c(Cl)c(Cl)nc2c1NC(=O)c1cccnc1N2C1CC1", "observable": "melting point", "meas_value": "> 290 °C"}
{"compound": "CCCOCOCCc1ccc(OCCCOC(=O)C2=C(C)NC(C)=C(C(=O)OC)[C@@H]2c2cccc([N+](=O)[O-])c2)cc1", "observable": "melting point", "meas_value": "< 50 °C"}
{"compound": "COc1ccc(Nc2nc(N)c3[nH]c(C)cc3n2)cc1", "observable": "melting point", "meas_value": "161 to 163 °C"}
{"compound": "CCOC(=O)c1ncn2c1CN(C)C(=O)c1c(C#N)cccc1-2", "observable": "melting point", "meas_value": "200 to 201 °C"}
{"compound": "CC[C@H](C)C(OCc1ccccc1)[C@H]1[C@H]([N+](=O)[O-])[C@H](c2ccccc2)N[C@@H]1C(=O)NCCC(=O)O (some centres not stated)", "observable": "melting point", "meas_value": "140 to 141 °C"}
{"compound": "COc1cc(C(C)=O)ccc1NCCCN1CCC(c2noc3cc(F)ccc23)CC1", "observable": "melting point", "meas_value": "96 to 98 °C"}

Notebook: Cc1cccc(-c2nc(NC3CCCCC3)c3ccccc3n2)n1 , melting point read as 253 to 255 °C

Record summary for CCCC(=O)N[C@H]1CC[C@H](CCN2CCN(c3nccc4c3OCC4)CC2)CC1 : reported melting point = 183 °C

Form: compound = Nc1ncnc2c1ncn2Cc1nc2cccc(F)c2c(=O)n1-c1ccccc1Cl ; melting point = 159 to 172 °C

The measured values listed here are drawn from a melting point compilation (Tetko et al.; mined from patent text by program, amines drawn as free bases though some values may be those of a salt).
